target.under.test: T1, recombinant biotinylated CD71 extracellular domain (Sino Biologics) with an N-terminal 6His tag (human, UniProt P02786 89-760, biotinylated (sites not given))
T1 construct: extracellular domain; also called hCD71; huCD71
experiment.notes: screening ELISA
measured.property: hCD71
Please reply with the number alone, leaving off any unit.

Prompt: Can you look up the measured hCD71 of SEQ ID NO 258 (designed binder, FN3 domain) MLPAPKNLVVSRVTEDSARLSWTAPDAAFDSFFIPYAEPSPTGEAIVLTVPGSERSYDLTGLKPGTEYDVWIEGVKGGVLSWPLSAIFTT for me?
Completion: 1.04e+06

Prompt: Returns the measured hCD71 for the input binder. Input: SEQ ID NO 237 (designed binder, FN3 domain) MLPAPKNLVVSRVTEDSARLSWTAPDAAFDSFTILYGEMGTTGEAIVLTVPGSERSYDLTGLKPGTEYDVFIEGVKGGELSWPLSAIFTT
Completion: 4.15e+06

Prompt: Could you share which hCD71 value was measured for SEQ ID NO 125 (designed binder, FN3 domain) MLPAPKNLVVSRVTEDSARLSWTAPDAAFDSFVIEYFEFVGEGEAIVLTVPGSERSYDLTGLKPGTEYDVGIYGVKGGSLSSPLSAIFTT ?
Completion: 2.33e+06

Prompt: Please give the measured hCD71 for this binder: SEQ ID NO 109 (designed binder, FN3 domain) MLPAPKNLVVSRVTEDSARLSWTAPDAAFDSFHIAYEELVTEGEAIYLRVPGSERSYDLTGLKPGTEYLVDIEGVKGGHLSSPLSAIFTT
Completion: 4.83e+06

Prompt: # get_value(readout='hCD71', item= SEQ ID NO 160 (designed binder, FN3 domain) MLPAPKNLVVSRVTEDSARLSWTAPDAAFDSFNIAYGEWRQHGEAIVLTVPGSERSYDLTGLKPGTEYDVFIDGVKGGNLSWPLSAIFTT )
Completion: 2.76e+06

Prompt: Which hCD71 reading was recorded for the binder SEQ ID NO 84 (designed binder, FN3 domain) MLPAPKNLVVSRVTEDSARLSWTAPDAAFDSFPIYYWEVFPAGEAIELDVPGSERSYDLTGLKPGTEYFVRIEGVKGGASSYPLRAEFTT ?
Completion: 1.73e+06

Prompt: Can you look up the measured hCD71 of SEQ ID NO 183 (designed binder, FN3 domain) MLPAPKNLVVSRVTEDSARLSWTAPDAAFDSFLIPYAETSPSGEAIVLTVPGSERSYDLTGLKPGTEYSVLIHGVKGGRPSNPLVAAFTT for me?
Completion: 1.72e+06

Prompt: Which hCD71 is listed for SEQ ID NO 219 (designed binder, FN3 domain) MLPAPKNLVVSRVTEDSARLSWTAPDAAFDSFHIDYLELTYAGEAIVLTVPGSERSYDLTGLKPGTEYYVTIYGVKGGYPSSPLSAIFTT ?
Completion: 3.31e+06

Prompt: Look up hCD71: SEQ ID NO 193 (designed binder, FN3 domain) MLPAPKNLVVSRVTEDSARLSWTAPDAAFDSFTIWYAEAVGNGEAIVLTVPGSERSYDLTGLKPGTEYWVDIWGVKGGEFSSPLSAIFTT
Completion: 3.87e+06
